- Test system: SRS-A synthesis or release from peritoneal exudate cells
- assayProcedure: Anti-SRS-A activity (SRS-A synthesis or release from peritoneal exudate cells)
- Type: cell-based, SD rats
- conditionsUsed: rat peritoneal exudate cells, Ca++-ionophore A23187 1 μg/ml, indomethacin 10 μg/ml; SRS-A determined by contractility of isolated guinea pig ileum; read-out: Inhibitory Concentration IC50
For each record, check the reported IC50: if it is below 0.6 µg/mL write TRUE, else write FALSE.

# testSmiles, tgt, discreteLabel
data = [
    ("O=C(/C=C/C=C/c1cc(Cl)c(O)c(Cl)c1)NCCN1CCC(c2c[nH]c3ccccc23)CC1", "SRS-A synthesis or release from peritoneal exudate cells", "FALSE"),
    ("COc1cc(/C=C/C=C/C(=O)NCCN2CCC(c3c[nH]c4ccccc34)CC2)cc(OC)c1OC(C)=O", "SRS-A synthesis or release from peritoneal exudate cells", "TRUE"),
    ("COc1cc(/C=C/C=C/C(=O)NCCN2CCC(c3c[nH]c4ccccc34)CC2)cc(OC)c1O", "SRS-A synthesis or release from peritoneal exudate cells", "FALSE"),
    ("COc1cc(/C=C/C=C/C(=O)NCCN2CCC(c3c[nH]c4ccccc34)CC2)ccc1O", "SRS-A synthesis or release from peritoneal exudate cells", "FALSE"),
]
